test system: Mus musculus; test: Anticonvulsant activity in ip dosed mouse assessed as inhibition of N-sulfamoylhexahydroazepine-induced seizure; format: functional
# Lookup of reported ED50 keyed by entry

smiles-data: CCOC1=NCC(=O)N(c2ccccc2)c2ccc(Cl)cc21
ED50: > 150 mg/kg

smiles-data: Cc1ccc2c(c1)C(=O)NCC(=O)N2C
ED50: > 102 mg/kg

smiles-data: COC1=NCC(=O)N(C)c2ccc(Cl)cc21
ED50: > 50 mg/kg

smiles-data: CN1C(=O)CN=C(OCCBr)c2cc(Cl)ccc21
ED50: > 102 mg/kg

Reference source for all entries: ChEMBL document CHEMBL3272103
